Target: SSTR5 (Homo sapiens (Human))
Sequence (P35346 whole entry): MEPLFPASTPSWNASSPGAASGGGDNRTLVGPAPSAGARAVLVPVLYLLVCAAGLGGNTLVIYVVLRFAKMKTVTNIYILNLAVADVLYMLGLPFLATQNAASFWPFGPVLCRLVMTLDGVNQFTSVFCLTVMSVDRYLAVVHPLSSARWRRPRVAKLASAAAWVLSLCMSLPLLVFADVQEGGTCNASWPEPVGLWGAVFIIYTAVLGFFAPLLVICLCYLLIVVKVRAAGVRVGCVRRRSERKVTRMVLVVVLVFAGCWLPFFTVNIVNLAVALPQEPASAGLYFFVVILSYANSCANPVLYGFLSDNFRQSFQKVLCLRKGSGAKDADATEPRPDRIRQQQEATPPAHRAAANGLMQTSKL
Experiment: SSTR5 binding assay
Conditions: CHO-K1 membranes expressing cloned human SSTR5
Protocol: The receptor-ligand binding assays of all 5 subtype of SSTRs were performed with membranes isolated from Chinese hamster ovary (CHO)-K1 cells stably expressing the cloned human somatostatin receptors in 96-well format as previous reported. The stable cell lines for SSTR1-SSTR5 were developed by stably transfecting with DNA for all five SSTRs using Lipofectamine. […]
Counter-ions that a name gives are not always drawn.
outcomeMeasure: IC50 (nM)
Supply the numeric figure in nM, leaving out any unit text.

compound: COc1ccc2c(CN3CCC4(CC3)CN(c3ccc(C(=O)O)cc3)C(=O)O4)nn(C(C)C)c2c1 [Example 6-6, TFA salt]
studyTarget: SSTR5 (Homo sapiens (Human))
IC50 / nM: 68.1
--
compound: Cc1cc(-c2cc(F)c(F)cc2F)c(CN2CCC3(CC2)CN(c2ccc(C(=O)O)cc2)C(=O)O3)cc1Cl [Example 4-24, TFA salt]
studyTarget: SSTR5 (Homo sapiens (Human))
IC50 / nM: 1.13
--
compound: CCOc1cc(CN2CCC3(CC2)CN(c2ccc(C(=O)O)cc2)C(=O)O3)cc2c(OC)ccc(Cl)c12 [Example 5-7, TFA salt]
studyTarget: SSTR5 (Homo sapiens (Human))
IC50 / nM: 0.233
--
compound: COc1ccc(-c2nn(C(C)(C)C)cc2CN2CCC3(CC2)CN(c2ccc(C(=O)O)cc2)C(=O)O3)c(F)c1 [Example 1-32, TFA salt]
studyTarget: SSTR5 (Homo sapiens (Human))
IC50 / nM: 2.05
--
compound: CC(C)Oc1ccc(-c2ccc(F)c(F)c2F)c(CN2CCC3(CC2)CN(c2ccc(C(=O)O)cc2)C(=O)O3)c1 [Example 4-6, TFA salt]
studyTarget: SSTR5 (Homo sapiens (Human))
IC50 / nM: 0.546

Query string: Query (compound): CCOc1cc(CN2CCC3(CC2)CN(c2ccc(O)nc2)C(=O)O3)cc(OCC)c1-c1ccc(F)cc1 [Example 3-13, TFA salt] ; field requested: IC50
Result string: 3.8

Query string: What would you report for O=C(O)c1ccc(N2CC3(CCN(Cc4c(-c5cc(F)c(F)cc5F)nn(-c5ccccc5)c4Cl)CC3)OC2=O)cc1 [Example 1-39, TFA salt] ?
Result string: 44.6

Query string: What would you report for O=C(O)c1ccc(N2CC3(CCN(Cc4nc(C5CC5)oc4-c4ccc(F)c(Cl)c4)CC3)OC2=O)cc1 [Example 6-31, TFA salt] ?
Result string: 414

Query string: What would you report for CCOc1cc(CN2CCC3(CC2)CN(c2ccc(C(=O)O)cc2F)C(=O)O3)cc(OCC)c1-c1ccc(F)cc1 [Example 3-21, TFA salt] ?
Result string: 0.437

Query string: What would you report for CCOc1cc(CN2CCC3(C2)CN(c2ccc(C(=O)O)cc2)C(=O)O3)cc(OCC)c1-c1ccc(F)cc1 (stereo not shown) [Example 2-16, TFA salt] ?
Result string: 5.63

Query string: What would you report for Cc1cc(-c2ccc(C(F)(F)F)nc2)c(CN2CCC3(CC2)CN(c2ccc(C(=O)O)cc2)C(=O)O3)cc1Cl [Example 4-26, TFA salt] ?
Result string: 9.35

Query string: What would you report for CC(C)(C)n1cc(CN2CCC3(CC2)CN(c2ccc(C(=O)O)cc2)C(=O)O3)c(-c2cc(F)c(F)cc2F)n1 [Example 1-7, TFA salt] ?
Result string: 2.62

Query string: What would you report for CC(C)(C)n1cc(CN2CCC3(C2)CN(c2ccc(C(=O)O)cc2)C(=O)O3)c(-c2ccc(F)c(F)c2F)n1 (stereo not shown) [Example 2-17, TFA salt] ?
Result string: 32.7
